All figures here come from patent US20240076347A1.

Experiment: Monkey pharmacokinetics, SC and IV administration
Format: in vivo, cynomolgus monkeys
Conditions: male, cynomolgus monkey, plasma; animal 9697, M; 30 mg/kg SC single dose; read-out: AUCINF_obs
Numbered stars: 1 amine (or outer) side, 2 acyl side, 3 side chain; on linkers, the order of the positions; unused ones are H or OH. Bridge positions count the residues as written; N and C are the ends. Square brackets hold non-standard residues; d marks the D form. Peptide text beside a SMILES is read from it. * marks the point of attachment. ξ: configuration not given here. Orn(4R-OH,5R-OCH2CH2NMe3+) = C[N+](C)(C)CCO[C@@H](N[*:3])[C@H](O)C[C@H](N[*:1])C(=O)[*:2]; pTerphenylCO(4''-OnC5H11) = CCCCCOc1ccc(-c2ccc(-c3ccc(C(=O)*)cc3)cc2)cc1; hTyr(3S-OH,4S-OH) = N[C@H](C(=O)O)[C@H](O)[C@@H](O)c1ccc(O)cc1; X1 = C[C@H]1CN([*:1])C(C(=O)[*:2])C1O; Hyp = O=C(O)[C@@H]1C[C@@H](O)CN1; ξT = CC(O)C(N)C(=O)O

COMPOUND	AUC(0-inf)
CCCCCOc1ccc(-c2ccc(-c3ccc(C(=O)N[C@H]4C[C@@H](O)[C@@H](OCC[N+](C)(C)C)NC(=O)C5C(O)[C@@H](C)CN5C(=O)[C@H]([C@@H](C)O)NC(=O)[C@H]([C@H](O)[C@@H](O)c5ccc(O)cc5)NC(=O)[C@@H]5C[C@@H](O)CN5C(=O)C(C(C)O)NC4=O)cc3)cc2)cc1 (stereo partly drawn) [CD101] ({pTerphenylCO(4''-OnC5H11)}-[Orn(4R-OH,5R-OCH2CH2NMe3+)][ξT][Hyp][hTyr(3S-OH,4S-OH)]T[X1]; lactam 1-C)	3280 µg·h/mL

* * *

Assay: Pharmacokinetic profile in female rats, SC and IV
Conditions: rat, in vivo, SC
Numbered stars: 1 amine (or outer) side, 2 acyl side, 3 side chain; on linkers, the order of the positions; unused ones are H or OH. Bridge positions count the residues as written; N and C are the ends. Square brackets hold non-standard residues; d marks the D form. Peptide text beside a SMILES is read from it. * marks the point of attachment. ξ: configuration not given here. Orn(4R-OH,5R-OCH2CH2NMe3+) = C[N+](C)(C)CCO[C@@H](N[*:3])[C@H](O)C[C@H](N[*:1])C(=O)[*:2]; pTerphenylCO(4''-OnC5H11) = CCCCCOc1ccc(-c2ccc(-c3ccc(C(=O)*)cc3)cc2)cc1; hTyr(3S-OH,4S-OH) = N[C@H](C(=O)O)[C@H](O)[C@@H](O)c1ccc(O)cc1; X1 = C[C@H]1CN([*:1])C(C(=O)[*:2])C1O; Hyp = O=C(O)[C@@H]1C[C@@H](O)CN1; ξT = CC(O)C(N)C(=O)O

COMPOUND	Tmax
CCCCCOc1ccc(-c2ccc(-c3ccc(C(=O)N[C@H]4C[C@@H](O)[C@@H](OCC[N+](C)(C)C)NC(=O)C5C(O)[C@@H](C)CN5C(=O)[C@H]([C@@H](C)O)NC(=O)[C@H]([C@H](O)[C@@H](O)c5ccc(O)cc5)NC(=O)[C@@H]5C[C@@H](O)CN5C(=O)C(C(C)O)NC4=O)cc3)cc2)cc1 (stereo partly drawn) [CD101] ({pTerphenylCO(4''-OnC5H11)}-[Orn(4R-OH,5R-OCH2CH2NMe3+)][ξT][Hyp][hTyr(3S-OH,4S-OH)]T[X1]; lactam 1-C)	8 to 24 h
